Listed below: pKd values for each entry.
- system: T1, human PD-L1 antigen (ACROBiosystems) (human, UniProt Q9NZQ7 19-238)
- T1 construct: Bought antigen coated on ELISA plates
- T1 sequence (Q9NZQ7 19-238 limits assumed): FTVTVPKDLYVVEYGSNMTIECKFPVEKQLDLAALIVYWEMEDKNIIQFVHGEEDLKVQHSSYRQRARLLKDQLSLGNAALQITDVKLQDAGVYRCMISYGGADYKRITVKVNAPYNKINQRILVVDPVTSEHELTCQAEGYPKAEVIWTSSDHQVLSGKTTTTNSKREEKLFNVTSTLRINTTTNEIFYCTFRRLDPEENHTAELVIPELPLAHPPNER
- protocol summary: BLI (Gator), antibody captured on PA probe, human PD-L1 in solution
- Method: The interaction between monoclonal antibodies and antigens was detected using Gator, a label-free biomolecular interaction analyzer based on the principle of biolayer interferometry (BLI). […] The interaction was analyzed by detecting the signal change of the reflected interference spectrum on the surface of the probe, and the binding kinetic constants of the antibody were finally calculated.
Kindly note that pKd refers to -log10 of the concentration in mol/L and answer with the value alone.

Answered examples (3):
anti-PD-L1 monoclonal antibody 1541 (antibody, human IgG1, V domains shown) VH: EVQLVESGGGLVQPGGSLRLSCAASGFTFDYYTQCWFRQAPGKEREWVSCISSSEGSTYYADSVKGRFTISRDNSKNTVYLQMNSLKTEDTAVYYCAARKGGPLTIENFFDYWGQGTQVTVSS = 8.36
anti-PD-L1 monoclonal antibody 1031 (antibody, human IgG1, V domains shown) VH: EVQLVESGGGLVQPGGSLRLSCAASGFTFEYYTKCWFRQAPGKEREWVSCISTSEGSTYYADSVKGRFTISRDNAKNTVYLQMNSLRAEDTAVYYCAARKGGPLTIENFFDYWGQGTQVTVSS = 8.08
anti-PD-L1 monoclonal antibody 1102 (antibody, human IgG1, V domains shown) VH: EVQLVESGGGLVQPGGSLRLSCAASGFTFDYYTQCWFRQAPGKEREWVSCISSSEGSTYYADSVKGRFTISRDNAKNTVYLQMNSLRAEDTAVYYCAARKGGPLTIENFFDYWGQGTQVTVSS = 8.36

Task: For the binder shown here, anti-PD-L1 monoclonal antibody 1029 (antibody, human IgG1, V domains shown) VH: EVQLVESGGGLVQPGGSLRLSCAASGFTLDYYSKCWFRQAPGKEREWVSCIGSSDGSTYYADSVKGRFTISRDNAKNTVYLQMNSLRAEDTAVYYCAARNGGPLTIENFFDYWGQGTQVTVSS , give the reported pKd.
Result: 8.36

The reported numbers originate from patent US20250376533A1.
